# credit: paper PMC5656002

target: KPC-2 β-lactamase (purified) (UniProt Q9F663 30-293); experiment: enzyme inhibition assay
Sequence (Q9F663 30-293): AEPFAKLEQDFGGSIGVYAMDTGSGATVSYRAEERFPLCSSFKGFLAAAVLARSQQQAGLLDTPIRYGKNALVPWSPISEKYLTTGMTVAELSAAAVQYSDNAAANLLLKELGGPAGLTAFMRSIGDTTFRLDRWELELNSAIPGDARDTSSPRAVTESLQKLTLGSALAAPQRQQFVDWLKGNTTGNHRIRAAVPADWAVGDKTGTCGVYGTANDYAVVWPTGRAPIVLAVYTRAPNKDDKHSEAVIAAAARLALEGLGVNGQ
Could you please report measured pKi for the items listed next?
# reply with the number alone; pKi is -log10 of concentration in mol/L

[in] Tell me pKi reported for BLIP W112D (natural protein) AGVMTGAKFTQIQFGMTRQQVLDIAGAENCETGGSFGDSIHCRGHAAGDYYAYATFGFTSAAADAKVDSKSQEKLLAPSAPTLTLAKFNQVTVGMTRAQVLATVGQGSCTTDSEYYPAYPSTAGVTLSLSCFDVDGYSSTGFYRGSAHLWFTDGVLQGKRQWDLV
[out] 5.96

[in] Tell me pKi reported for BLIP K74T (natural protein) AGVMTGAKFTQIQFGMTRQQVLDIAGAENCETGGSFGDSIHCRGHAAGDYYAYATFGFTSAAADAKVDSKSQETLLAPSAPTLTLAKFNQVTVGMTRAQVLATVGQGSCTTWSEYYPAYPSTAGVTLSLSCFDVDGYSSTGFYRGSAHLWFTDGVLQGKRQWDLV
[out] 8.74

[in] Tell me pKi reported for β-lactamase inhibitory protein (BLIP), wild type (natural protein, Streptomyces clavuligerus, UniProt P35804 37-201, looked up) AGVMTGAKFTQIQFGMTRQQVLDIAGAENCETGGSFGDSIHCRGHAAGDYYAYATFGFTSAAADAKVDSKSQEKLLAPSAPTLTLAKFNQVTVGMTRAQVLATVGQGSCTTWSEYYPAYPSTAGVTLSLSCFDVDGYSSTGFYRGSAHLWFTDGVLQGKRQWDLV
[out] 8.92

[in] Tell me pKi reported for BLIP R160G (natural protein) AGVMTGAKFTQIQFGMTRQQVLDIAGAENCETGGSFGDSIHCRGHAAGDYYAYATFGFTSAAADAKVDSKSQEKLLAPSAPTLTLAKFNQVTVGMTRAQVLATVGQGSCTTWSEYYPAYPSTAGVTLSLSCFDVDGYSSTGFYRGSAHLWFTDGVLQGKGQWDLV
[out] 9.05

[in] Tell me pKi reported for BLIP E73K (natural protein) AGVMTGAKFTQIQFGMTRQQVLDIAGAENCETGGSFGDSIHCRGHAAGDYYAYATFGFTSAAADAKVDSKSQKKLLAPSAPTLTLAKFNQVTVGMTRAQVLATVGQGSCTTWSEYYPAYPSTAGVTLSLSCFDVDGYSSTGFYRGSAHLWFTDGVLQGKRQWDLV
[out] 7.86
